Below: a set of entries, each annotated with reported TGI.
# System: MDA-N
# EXPERIMENT DESCRIPTION: NCI tumour cell line growth inhibition, 48 h

For orientation, consider the following solved cases.
COc1ccc2c(c1)/C(=C\c1c(Cl)[nH]c3cc(C)c(OC)cc13)C(=O)N2: 2.13 µM
O=C1C(=O)c2ccccc2C(O)=C1C(C1=C(O)c2ccccc2C(=O)C1=O)c1ccc(Cl)cc1: 3.74 µM
Nc1cc([N+](=O)[O-])ccc1C(=O)N1CCC[C@H]1CO: > 100 µM

// field: TGI; key: COc1ccc(/C=C2\N=C(N3CCCCC3)NC2=O)cc1 ; value = > 100 µM

// field: TGI; key: CCOC(=O)c1ccc(N=C/C=C(\Nc2ccc(C(=O)OCC)cc2)C23CC4CC(CC(C4)C2)C3)cc1 ; value = > 100 µM

// field: TGI; key: N[C@H](C(=O)O)[C@@H]1CC(Cl)=NO1 ; value = > 1000 µM

// field: TGI; key: O=C(CSc1nnc(-c2ccccn2)s1)N/N=C/c1ccccc1 ; value = > 100 µM

// field: TGI; key: Cc1c(-c2ccccc2)cc(O)c2nc3ccccc3n12 ; value = > 100 µM

// field: TGI; key: CCOC(=O)CCC(NC(=O)c1ccc(Nc2nc3ccc(C(F)(F)F)cc3nc2-c2ccccc2)cc1)C(=O)OCC (configuration not stated) ; value = 75.4 µM

Cited source for all entries: PubChem BioAssay (NCI)
